Data origin: patent US20130210809A1

target: recombinant human mGluR4a receptors (Homo sapiens); assay: mGluR4 assay on HEK-expressing human mGluR4 (fluorescent cell based Ca2+ mobilization assay, FLIPR); details: HEK-293 cells expressing hmGluR4; enhancement of EC25 glutamate response; mean of at least three independent experiments in duplicate; read-out: Ca^2+ Flux (mean EC50)
Sequence (Q14833 33-912): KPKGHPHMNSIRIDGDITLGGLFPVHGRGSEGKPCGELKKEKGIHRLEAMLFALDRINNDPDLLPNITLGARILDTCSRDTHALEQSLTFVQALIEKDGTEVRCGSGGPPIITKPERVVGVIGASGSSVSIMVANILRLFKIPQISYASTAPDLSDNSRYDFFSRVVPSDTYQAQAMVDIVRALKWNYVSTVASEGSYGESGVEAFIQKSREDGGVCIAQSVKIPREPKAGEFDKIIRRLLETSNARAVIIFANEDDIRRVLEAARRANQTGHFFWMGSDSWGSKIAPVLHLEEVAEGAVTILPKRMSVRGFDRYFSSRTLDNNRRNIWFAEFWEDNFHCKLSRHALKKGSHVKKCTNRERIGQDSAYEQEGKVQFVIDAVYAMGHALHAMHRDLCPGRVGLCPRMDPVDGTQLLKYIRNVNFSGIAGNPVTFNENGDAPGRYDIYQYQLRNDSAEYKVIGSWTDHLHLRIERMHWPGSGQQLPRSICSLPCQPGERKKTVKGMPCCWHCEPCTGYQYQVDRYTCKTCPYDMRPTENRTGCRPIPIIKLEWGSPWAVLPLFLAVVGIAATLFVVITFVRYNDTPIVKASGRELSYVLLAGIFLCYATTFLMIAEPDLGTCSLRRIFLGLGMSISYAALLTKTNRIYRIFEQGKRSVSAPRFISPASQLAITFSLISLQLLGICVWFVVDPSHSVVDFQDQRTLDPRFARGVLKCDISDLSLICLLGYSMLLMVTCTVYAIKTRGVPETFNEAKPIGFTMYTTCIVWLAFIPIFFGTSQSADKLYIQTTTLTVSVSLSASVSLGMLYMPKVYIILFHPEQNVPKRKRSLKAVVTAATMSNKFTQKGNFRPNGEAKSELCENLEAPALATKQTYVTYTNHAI
Property Label: EC50

Cc1ccnc(Nc2nc(-c3c[nH]nc3C(F)F)cs2)n1 [Compound 1-1] = < 100 nM
Cc1ccnc(Nc2nc(-c3c[nH]nc3-c3ccc(C(O)C(F)(F)F)cc3)cs2)n1 (stereo not shown) [Compound 1-6] = 1000 to 10000 nM
CC(=O)N1CCC=C(c2n[nH]cc2-c2csc(Nc3nccc(C)n3)n2)C1 [Compound 1-33] = 1000 to 10000 nM
Cc1ccnc(Nc2nc(-c3c[nH]nc3-c3ccccc3C)cs2)n1 [Compound 1-19] = 1000 to 10000 nM
